Source listed as the supplement of paper PMC13380429.

System: HepG2
METHOD_NOTES: cell viability relative to DMSO; higher = less toxic
CONDITION_PARAMETERS: 72 h; 1000 nM
REPORTED_ENDPOINT: cell viability (%)
State just the number; it will be interpreted in %.

> print(dat)
                                   compound  numeric.result
1  COc1ccc(OC[C@@H]2c3cc(OC)c(OC)cc3CCN2C(=O)c2cccc(Cl)c2)cc1 [CIQ]            89.9
2  NS(=O)(=O)c1cc2c(cc1Cl)N=C(CSCc1ccccc1)NS2(=O)=O [benzthiazide]            94.3
3  CC(C)N(CCNC(=O)CN1CCCC1=O)C(C)C [pramiracetam]             107

Task: Entry C[C@]1(COc2ccc(N3CCC(Oc4ccc(OC(F)(F)F)cc4)CC3)cc2)Cn2cc([N+](=O)[O-])nc2O1 [delamanid] , system HepG2: what cell viability was measured?
Result: 99.5

Task: Entry CCN[C@H]1CN(CCCOC)S(=O)(=O)c2sc(S(N)(=O)=O)cc21 [brinzolamide] , system HepG2: what cell viability was measured?
Result: 110

Task: Entry CN1CCc2c(c3ccccc3n2Cc2ccc(C(=O)NO)cc2)C1 [tubastatin-A] , system HepG2: what cell viability was measured?
Result: 90.9

Task: Entry CC(=O)OCC(=O)[C@@]12N=C(C)O[C@@H]1C[C@H]1[C@@H]3CCC4=CC(=O)C=C[C@]4(C)[C@H]3[C@@H](O)C[C@@]12C [Deflazacort (Calcort)] , system HepG2: what cell viability was measured?
Result: 102

Task: Entry Nc1ncnc2c1c(-c1ccc(Cl)cc1)nn2-c1cccc(-c2cnnn2Cc2cccc(-c3ccccc3)c2)c1 [KB-SRC-4] , system HepG2: what cell viability was measured?
Result: 99.5
